Biological target: T1, leptin receptor (ObR) naturally expressed on MCF-7 and DU-45 cells (human, UniProt P48357 22-1165)
T1 sequence (looked up): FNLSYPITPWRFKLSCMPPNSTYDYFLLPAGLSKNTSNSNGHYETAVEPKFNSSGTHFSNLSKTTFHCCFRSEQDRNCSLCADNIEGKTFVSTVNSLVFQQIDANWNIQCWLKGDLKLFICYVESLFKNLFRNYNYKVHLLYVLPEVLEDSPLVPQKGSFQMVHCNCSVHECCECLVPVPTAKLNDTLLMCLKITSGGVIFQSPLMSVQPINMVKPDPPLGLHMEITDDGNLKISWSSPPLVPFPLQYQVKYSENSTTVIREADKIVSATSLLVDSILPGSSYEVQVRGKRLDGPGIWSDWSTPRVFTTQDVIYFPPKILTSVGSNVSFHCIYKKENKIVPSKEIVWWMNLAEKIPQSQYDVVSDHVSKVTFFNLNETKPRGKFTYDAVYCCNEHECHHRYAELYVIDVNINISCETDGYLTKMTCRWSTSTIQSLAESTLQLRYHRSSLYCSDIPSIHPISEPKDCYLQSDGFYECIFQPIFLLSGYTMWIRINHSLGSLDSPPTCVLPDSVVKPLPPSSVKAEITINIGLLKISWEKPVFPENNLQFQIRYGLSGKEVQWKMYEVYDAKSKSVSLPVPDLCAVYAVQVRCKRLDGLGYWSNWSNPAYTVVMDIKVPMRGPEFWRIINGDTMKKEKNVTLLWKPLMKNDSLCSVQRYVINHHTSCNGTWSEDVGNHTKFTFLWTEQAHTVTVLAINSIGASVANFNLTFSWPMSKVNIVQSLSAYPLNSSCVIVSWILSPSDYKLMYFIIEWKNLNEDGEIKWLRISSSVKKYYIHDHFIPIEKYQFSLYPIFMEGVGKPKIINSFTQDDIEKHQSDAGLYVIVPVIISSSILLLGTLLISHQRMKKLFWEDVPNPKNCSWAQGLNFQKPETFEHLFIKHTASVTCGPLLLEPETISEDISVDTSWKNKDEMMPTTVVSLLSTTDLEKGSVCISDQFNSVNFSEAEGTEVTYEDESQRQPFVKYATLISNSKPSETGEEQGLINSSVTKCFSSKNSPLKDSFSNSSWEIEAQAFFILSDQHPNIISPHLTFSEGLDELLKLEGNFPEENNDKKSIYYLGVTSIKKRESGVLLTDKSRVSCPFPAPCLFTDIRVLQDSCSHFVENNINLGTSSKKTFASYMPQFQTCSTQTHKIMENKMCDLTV
Test: cell-based or functional assay
Starred links: 1 amine or outer side, 2 acyl side, 3 side chain; linkers in the order of their positions; H or OH if unused. Non-standard residues stand in square brackets, D forms with d. Primed or numbered codes have the meaning given here. No end group written: not given here. Tyr(Me)″ = methylated tyrosine, COc1ccc(C[C@H](N[*:1])C(=O)[*:2])cc1; dGla = N[C@H](CC(C(=O)O)C(=O)O)C(=O)O
QUANTITY_NAME: Relative stimulation (%) of MCF-7 cells, with 10 nM leptin
One number for each entry, in %.

Query string: For the binder shown here, [Tyr(Me)″]ST[dGla]VV[dA]LSRL-NH2 (N-terminus assumed; SMILES COc1ccc(C[C@H](N)C(=O)N[C@@H](CO)C(=O)N[C@H](C(=O)N[C@H](CC(C(=O)O)C(=O)O)C(=O)N[C@H](C(=O)N[C@H](C(=O)N[C@H](C)C(=O)N[C@@H](CC(C)C)C(=O)N[C@@H](CO)C(=O)N[C@@H](CCCNC(=N)N)C(=O)N[C@@H](CC(C)C)C(N)=O)C(C)C)C(C)C)[C@@H](C)O)cc1) [D12 peptide] , give the reported Relative stimulation (%) of MCF-7 cells, with 10 nM leptin.
Result string: -43
